Consider the following compounds and their measured IC50 readings.
Biological target: Mitogen-activated protein kinase kinase kinase kinase 4 (Homo sapiens)
Sequence (O95819 whole entry, the tested form may be a part): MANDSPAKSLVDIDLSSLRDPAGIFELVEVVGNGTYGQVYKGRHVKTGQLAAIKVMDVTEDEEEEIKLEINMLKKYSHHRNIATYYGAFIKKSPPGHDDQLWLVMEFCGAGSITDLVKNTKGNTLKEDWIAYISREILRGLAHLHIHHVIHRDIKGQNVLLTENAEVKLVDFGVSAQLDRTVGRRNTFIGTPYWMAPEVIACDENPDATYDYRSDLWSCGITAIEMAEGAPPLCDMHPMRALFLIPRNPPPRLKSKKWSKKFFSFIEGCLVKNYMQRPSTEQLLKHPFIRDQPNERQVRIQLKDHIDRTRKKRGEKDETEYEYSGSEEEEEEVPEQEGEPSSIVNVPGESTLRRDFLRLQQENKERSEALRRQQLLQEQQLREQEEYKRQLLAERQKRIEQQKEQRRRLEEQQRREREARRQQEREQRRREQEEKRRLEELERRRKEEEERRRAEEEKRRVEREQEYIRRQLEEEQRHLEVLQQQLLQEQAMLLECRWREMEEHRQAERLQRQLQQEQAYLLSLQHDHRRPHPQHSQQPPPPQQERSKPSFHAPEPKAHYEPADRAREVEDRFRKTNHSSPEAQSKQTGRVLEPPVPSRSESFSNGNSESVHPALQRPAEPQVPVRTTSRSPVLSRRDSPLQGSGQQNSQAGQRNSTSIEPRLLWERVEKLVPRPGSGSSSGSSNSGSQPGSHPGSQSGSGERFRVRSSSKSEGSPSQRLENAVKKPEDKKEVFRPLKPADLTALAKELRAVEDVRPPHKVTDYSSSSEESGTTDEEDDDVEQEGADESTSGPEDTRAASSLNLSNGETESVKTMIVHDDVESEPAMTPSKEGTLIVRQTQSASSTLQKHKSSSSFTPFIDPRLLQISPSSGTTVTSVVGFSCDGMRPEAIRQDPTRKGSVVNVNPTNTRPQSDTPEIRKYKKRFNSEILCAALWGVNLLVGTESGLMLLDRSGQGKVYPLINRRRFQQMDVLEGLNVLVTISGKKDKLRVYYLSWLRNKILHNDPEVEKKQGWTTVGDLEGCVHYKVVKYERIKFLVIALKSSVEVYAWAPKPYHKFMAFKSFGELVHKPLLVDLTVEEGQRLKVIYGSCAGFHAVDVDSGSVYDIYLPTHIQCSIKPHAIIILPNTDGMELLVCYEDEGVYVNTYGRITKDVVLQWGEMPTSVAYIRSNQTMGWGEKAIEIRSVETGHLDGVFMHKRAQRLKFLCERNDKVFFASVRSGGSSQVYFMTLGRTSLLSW
Experiment: Inhibition of recombinant MAP4K4 (1 to 328 residues) (unknown origin) expressed in Escherichia coli BL21([…]) using MBP as substrate preincubated for 15 mins followed by substrate and ATP addition and measured after 90 mins by ADP-Glo luminescence […] assay
readout_type: IC50

- test_smiles: "C=Cc1ccc(Nc2cnc(Nc3cc(C)cc(F)c3)c(C(N)=O)c2)cc1"
  assay_result: "350 nM"
- test_smiles: "Cc1cc(F)cc(Nc2ncc(Nc3ccc(Oc4ccccc4)cc3)cc2C(N)=O)c1"
  assay_result: "4290 nM"
- test_smiles: "Cc1cc(F)cc(Nc2ncc(Nc3ccccc3Cl)cc2C(N)=O)c1"
  assay_result: "760 nM"
- test_smiles: "Cc1cc(F)cc(Nc2ncc(Nc3ccc(C(F)(F)F)cc3)cc2C(N)=O)c1"
  assay_result: "1420 nM"
